Tested on: 439559-082-T-J2-PDC complex spheroid growth;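 also: spheroids exposed to agents for 7 days starting day 3 after seeding; percent of DMSO vehicle control viability with 100% = vehicle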
Experiment: Anticancer human tumor 439559-082-T-J2-PDC patient-derived colon adenocarcinoma cell line growth inhibition [Asc]
Conditions: second compound 3 µM; first compound 0.1 µM; hits give low values
OBSERVABLE: viability, T/C (%)
Answers are plain numbers, in %.

{"columns": ["MOLECULE", "UNIT TAG", "viability, T/C"],
 "data": [
  ["C=C(F)C(=O)N1CCN(c2nc(OCC3CCCN3C)nc3c2CCN(c2cccc4cccc(Cl)c24)C3)CC1CC#N (configuration not stated) + CCN1C(C(=O)NC23CCC(C(=O)O)(CC2)CC3)C(c2cccc(Cl)c2F)C2(C(=O)Nc3cc(Cl)ccc32)C12CCCCC2", "%", 102]
]}

--- query ---
The molecule listed as Cn1ncnc1[C@H]1c2n[nH]c(=O)c3cc(F)cc(c23)N[C@@H]1c1ccc(F)cc1 + CCN1C(C(=O)NC23CCC(C(=O)O)(CC2)CC3)C(c2cccc(Cl)c2F)C2(C(=O)Nc3cc(Cl)ccc32)C12CCCCC2 shows viability, T/C equal to 91.6
